Values compiled from patent US20120295845A1.

Reported Emax values for the following compounds.
Target: human GPR119 (Homo sapiens, UniProt Q8TDV5)
Construct: host or cells: HEK293-CRE beta-lactamase cells
Test: cAMP functional assay (HTRF, hGPR119 HEK-CRE beta-lactamase cells)
Type: cell-based
Conditions: percent of maximal activity relative to standard GPR119 agonist (WO2005121121) at 10 μM; one value per run; read-out: Intrinsic Activity* (cAMP)
Sequence (Q8TDV5 whole entry): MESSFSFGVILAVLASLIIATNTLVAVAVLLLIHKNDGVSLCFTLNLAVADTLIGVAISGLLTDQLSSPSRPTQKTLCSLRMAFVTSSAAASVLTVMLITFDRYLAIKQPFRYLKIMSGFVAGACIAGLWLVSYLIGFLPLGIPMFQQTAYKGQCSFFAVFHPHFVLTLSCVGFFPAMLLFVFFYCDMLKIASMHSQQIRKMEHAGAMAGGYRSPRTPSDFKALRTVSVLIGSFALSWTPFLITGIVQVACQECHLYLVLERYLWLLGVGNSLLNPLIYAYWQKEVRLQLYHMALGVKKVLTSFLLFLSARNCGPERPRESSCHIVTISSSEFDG
Respond numerically; units are % and should not be typed.

COMPOUND: Cc1c(O[C@H]2CCN(C(=O)OC3(C)CC3)C[C@H]2F)ncnc1N1CCn2nccc21 (single isomer, unassigned) [Example 6]
UNIT_TAG: %
Emax: 86
--
COMPOUND: Cc1c(OC2CCN(C(=O)OC(C)C)CC2)ncnc1N1CCn2nccc21
UNIT_TAG: %
Emax: 28
--
COMPOUND: Cc1c(O[C@H]2CCN(C(=O)OC(C)C)C[C@H]2F)ncnc1N1CCn2nccc21 (racemic)
UNIT_TAG: %
Emax: 31
--
COMPOUND: Cc1c(O[C@@H]2CCN(C(=O)OC3(C)CC3)C[C@@H]2F)ncnc1N1CCn2nccc21 (single isomer, unassigned)
UNIT_TAG: %
Emax: 76
--
COMPOUND: Cc1c(OC2CCN(C(=O)OC3(C)CC3)CC2)ncnc1N1CCn2nccc21
UNIT_TAG: %
Emax: 71

Now for another entry.
Challenge: What does the data say about its Emax? Entry: Cc1c(O[C@H]2CCN(C(=O)OC3(C)CC3)C[C@H]2F)ncnc1N1CCn2nccc21 (racemic) [Example 3]
Response given: 80

###

Target: human GPR119 (Homo sapiens)
Construct: host or cells: U2OS
Test: beta-arrestin functional assay (DiscoverX PathHunter U2OS hGPR119 beta-arrestin cells)
Type: cell-based
Settings: U2OS hGPR119 beta-arrestin cells, 90 min incubation; one value per run; read-out: Human B-arrestin Functional EC50
Sequence (Q8TDV5 whole entry): as above
Sequence (P32121 whole entry partner): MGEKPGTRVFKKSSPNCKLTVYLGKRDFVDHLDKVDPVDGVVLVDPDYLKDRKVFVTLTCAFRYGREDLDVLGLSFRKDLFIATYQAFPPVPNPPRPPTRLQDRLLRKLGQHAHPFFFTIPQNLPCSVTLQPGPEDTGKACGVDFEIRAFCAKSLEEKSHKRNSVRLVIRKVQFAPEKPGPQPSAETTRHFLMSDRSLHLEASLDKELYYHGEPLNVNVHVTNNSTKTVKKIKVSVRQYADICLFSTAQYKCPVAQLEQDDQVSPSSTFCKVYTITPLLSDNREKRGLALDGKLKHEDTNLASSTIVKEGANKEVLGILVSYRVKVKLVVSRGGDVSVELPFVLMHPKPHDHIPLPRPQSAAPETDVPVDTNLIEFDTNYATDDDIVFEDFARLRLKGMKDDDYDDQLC
METRIC_NAME: pEC50
Reminder that pEC50 means the negative base-10 logarithm of the concentration expressed in mol/L.

Challenge: What does the data say about its pEC50? Entry: Cc1c(O[C@H]2CCN(C(=O)OC(C)C)C[C@H]2F)ncnc1N1CCn2nccc21 (racemic)
Response given: 7.28

###

Target: human GPR119 (Homo sapiens, UniProt Q8TDV5)
Construct: host or cells: U2OS
Assay: beta-arrestin functional assay (DiscoverX PathHunter U2OS hGPR119 beta-arrestin cells)
Type: cell-based
Conditions: curve was extrapolated to 100% to calculate the EC50 (**); read-out: Human B-arrestin Functional EC50
METRIC_NAME: pEC50
Reminder that pEC50 means the negative base-10 logarithm of the concentration expressed in mol/L.

Challenge: What does the data say about its pEC50? Entry: Cc1c(OC2CCN(C(=O)OC3(C)CC3)CC2)ncnc1N1CCn2nccc21 [Example 2]
Response given: 6.50
